experimental-system: UniProt:P16066
assay-explanation: Cell-free hNpr1 membrane cyclase assay (cGMP ELISA)
Assay type: biochemical
measurement-conditions: membranes of HEK-hNpr1-cGMP-sensor cells, hNppa-stimulated; read-out: IC50 [μM] (mean ± SEM), membrane cyclase assay
quantity: IC50 (µM)
Numbers only, in µM.

molecule	IC50, µM
Cc1nn2c(c1-c1ccccc1Oc1ccccc1)N(C(=O)Cc1ccc3c(c1)OCO3)CCC2	0.7
Cc1nn2c(c1-c1ccccc1OCc1ccccc1)N(C(=O)Cc1ccccn1)CCC2	2.2
COc1ccccc1-c1n[nH]c2ncc(C(=O)NCc3cccnc3)nc12	0.8
COc1cc(CN2CCC(C)(NC(C)=O)CC2)cc(-c2ccncc2)c1	2.8

Required: IC50, one value per molecule below.
1. N#Cc1ccccc1CN1CCCC(C(=O)NCc2ccccc2)CCNC(=O)CC1 (centres unmarked)
2. Cc1cc(CNC(=O)c2ccc3c(c2)n(CC2CC2)c(=O)n3C2CCCCC2)on1
3. Cc1noc(C)c1-c1cc(-c2ccccc2Oc2ccccc2)cn2cncc12
4. CCC(CC)c1cc([C@H]2CN3CC[C@H]2C[C@@H]3CNS(=O)(=O)c2cccs2)nc(-c2ccncc2)n1
5. O=C(NCc1cccnc1)c1cnc2[nH]nc(-c3ccccc3)c2n1
6. CN(Cc1ccccc1)C(=O)c1cn2ccnc(-c3ccccc3)c2n1

(A)
1: 0.8; 2: 1.4; 3: 0.1; 4: 4; 5: 0.1; 6: 12.7

(Q) UniProt:P16066 / IC50 / `Cc1nn2c(c1-c1ccccc1OCc1ccccc1)N(C(=O)Cc1ccc3c(c1)OCO3)CCC2` : value?
(A) 0.3

* * *

experimental-system: hNpr1 (Homo sapiens, UniProt P16066)
assay-explanation: Cell-free hNpr1 membrane cyclase assay (cGMP ELISA)
Type: biochemical
measurement-conditions: calculated with Cheng-Prusoff equation from Table 4; read-out: Ki hNpr1 cyclase assay [μM] (mean ± SEM)
Provide the recorded Ki for the entries that follow.
Answers are plain numbers, in µM.

compound	experimental-system	Ki / µM
Cc1nn2c(c1-c1ccccc1OCc1ccccc1)N(C(=O)Cc1ccccn1)CCC2	hNpr1 (Homo sapiens, UniProt P16066)	0.32
COc1ccccc1-c1n[nH]c2ncc(C(=O)NCc3cccnc3)nc12	hNpr1 (Homo sapiens, UniProt P16066)	0.11
CN(Cc1ccccc1)C(=O)c1cn2ccnc(-c3ccccc3)c2n1	hNpr1 (Homo sapiens, UniProt P16066)	1.87
O=C(NCc1cccnc1)c1cnc2[nH]nc(-c3ccccc3)c2n1	hNpr1 (Homo sapiens, UniProt P16066)	0.02
CCC(CC)c1cc([C@H]2CN3CC[C@H]2C[C@@H]3CNS(=O)(=O)c2cccs2)nc(-c2ccncc2)n1	hNpr1 (Homo sapiens, UniProt P16066)	0.58
COc1cc(CN2CCC(C)(NC(C)=O)CC2)cc(-c2ccncc2)c1	hNpr1 (Homo sapiens, UniProt P16066)	0.41
Cc1nn2c(c1-c1ccccc1Oc1ccccc1)N(C(=O)Cc1ccc3c(c1)OCO3)CCC2	hNpr1 (Homo sapiens, UniProt P16066)	0.11
Cc1noc(C)c1-c1cc(-c2ccccc2Oc2ccccc2)cn2cncc12	hNpr1 (Homo sapiens, UniProt P16066)	0.02

Required: Ki, one value per compound below.
1. Cc1nn2c(c1-c1ccccc1OCc1ccccc1)N(C(=O)Cc1ccc3c(c1)OCO3)CCC2
2. N#Cc1ccccc1CN1CCCC(C(=O)NCc2ccccc2)CCNC(=O)CC1 (centres unmarked)
3. Cc1cc(CNC(=O)c2ccc3c(c2)n(CC2CC2)c(=O)n3C2CCCCC2)on1

(A)
1: 0.05; 2: 0.12; 3: 0.21

* * *

experimental-system: hNpr1 (Homo sapiens)
assay-explanation: Cell-free hNpr1 membrane cyclase assay (cGMP ELISA)
Assay type: biochemical
measurement-conditions: IC50 biochem assay (M), Table 1; biochemical assay
quantity: IC50
Be sure to follow the number with its unit.

(Q) hNpr1 (Homo sapiens) / IC50 / `COc1ccc(C2(C(=O)N3CCC4(CC3)c3nccn3-c3ccccc3CN4C)CC2)cc1` : value?
(A) 6.14e-07 M

* * *

experimental-system: UniProtKB P16066
Sequence (P16066 33-1061): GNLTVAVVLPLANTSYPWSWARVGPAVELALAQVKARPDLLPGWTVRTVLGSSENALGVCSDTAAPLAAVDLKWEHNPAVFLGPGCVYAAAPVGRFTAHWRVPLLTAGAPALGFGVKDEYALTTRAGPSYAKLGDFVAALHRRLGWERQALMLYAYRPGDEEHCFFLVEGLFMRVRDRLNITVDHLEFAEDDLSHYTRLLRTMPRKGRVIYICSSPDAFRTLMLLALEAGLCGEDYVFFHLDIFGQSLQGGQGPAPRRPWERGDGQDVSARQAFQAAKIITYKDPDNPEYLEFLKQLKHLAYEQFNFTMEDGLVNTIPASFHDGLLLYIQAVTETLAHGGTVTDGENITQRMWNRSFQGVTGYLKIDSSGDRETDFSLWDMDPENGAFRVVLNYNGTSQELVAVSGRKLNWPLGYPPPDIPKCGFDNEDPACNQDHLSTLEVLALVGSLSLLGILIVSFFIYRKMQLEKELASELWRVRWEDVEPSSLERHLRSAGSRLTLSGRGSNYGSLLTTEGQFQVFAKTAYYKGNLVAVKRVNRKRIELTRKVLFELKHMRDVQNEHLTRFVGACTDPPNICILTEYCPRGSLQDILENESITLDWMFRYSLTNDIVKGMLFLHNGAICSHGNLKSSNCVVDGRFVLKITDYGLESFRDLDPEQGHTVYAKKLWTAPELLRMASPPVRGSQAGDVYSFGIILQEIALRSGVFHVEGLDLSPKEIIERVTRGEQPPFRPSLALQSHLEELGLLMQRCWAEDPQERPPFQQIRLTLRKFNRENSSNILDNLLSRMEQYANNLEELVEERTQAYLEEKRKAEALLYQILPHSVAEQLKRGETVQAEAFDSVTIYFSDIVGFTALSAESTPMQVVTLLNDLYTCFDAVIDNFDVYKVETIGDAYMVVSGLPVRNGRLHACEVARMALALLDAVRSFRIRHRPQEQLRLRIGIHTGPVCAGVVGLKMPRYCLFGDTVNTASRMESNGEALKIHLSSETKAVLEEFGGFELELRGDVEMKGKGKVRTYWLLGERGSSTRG
assay-explanation: GloSensor assay in 96-well format, HEK-hNpr1-cGMP-sensor cells
Type: cell-based
measurement-conditions: 60 pM hNppa 5 minutes after compound
quantity: Imax [%] (mean ± SEM), GloSensor 96-well format (%)
Answers are plain numbers, in %.

Would you please look over these solved cases?
compound	unit-info	recorded-result
COc1cc(CN2CCC(C)(NC(C)=O)CC2)cc(-c2ccncc2)c1 [JS-4]	%	−95.5
Cc1nn2c(c1-c1ccccc1OCc1ccccc1)N(C(=O)Cc1ccccn1)CCC2 [JS-9]	%	−93.4

Required: Imax [%] (mean ± SEM), GloSensor 96-well format, one value per compound below.
1. CCC(CC)c1cc([C@H]2CN3CC[C@H]2C[C@@H]3CNS(=O)(=O)c2cccs2)nc(-c2ccncc2)n1 [JS-3]
2. Cc1cc(CNC(=O)c2ccc3c(c2)n(CC2CC2)c(=O)n3C2CCCCC2)on1 [JS-11]

(A)
["−99.4", "−96.3"]

Required: Imax [%] (mean ± SEM), GloSensor 96-well format, one value per compound below.
1. Cc1noc(C)c1-c1cc(-c2ccccc2Oc2ccccc2)cn2cncc12 [JS-5]
2. Cc1nn2c(c1-c1ccccc1Oc1ccccc1)N(C(=O)Cc1ccc3c(c1)OCO3)CCC2 [JS-10]
3. COc1ccccc1-c1n[nH]c2ncc(C(=O)NCc3cccnc3)nc12 [JS-6]

(A)
["−99.9", "−98.3", "−94.2"]

Required: Imax [%] (mean ± SEM), GloSensor 96-well format, one value per compound below.
1. N#Cc1ccccc1CN1CCCC(C(=O)NCc2ccccc2)CCNC(=O)CC1 (stereo not shown) [JS-13]
2. Cc1nn2c(c1-c1ccccc1OCc1ccccc1)N(C(=O)Cc1ccc3c(c1)OCO3)CCC2 [JS-8]
3. COc1ccc(C2(C(=O)N3CCC4(CC3)c3nccn3-c3ccccc3CN4C)CC2)cc1 [JS-12]

(A)
1. −96.1
2. −98.8
3. −96.0

* * *

experimental-system: hNpr1 (Homo sapiens)
assay-explanation: qHTS GloSensor cGMP assay, hNppa-stimulated HEK-hNpr1-cGMP-sensor cells (1536-well)
Type: cell-based
measurement-conditions: qHTS follow-up; hNppa-stimulated; −100% = 38.3 μM A-71915
Provide the recorded Imax, HEK-hNpr1-cGMP-sensor cells for the entries that follow.
Answers are plain numbers, in %.

Would you please look over these solved cases?
compound	Imax, HEK-hNpr1-cGMP-sensor cells [%]
Cc1nn2c(c1-c1ccccc1Oc1ccccc1)N(C(=O)Cc1ccc3c(c1)OCO3)CCC2	−122
COc1ccc(C2(C(=O)N3CCC4(CC3)c3nccn3-c3ccccc3CN4C)CC2)cc1	−116

Required: Imax, HEK-hNpr1-cGMP-sensor cells, one value per compound below.
1. COc1cc(CN2CCC(C)(NC(C)=O)CC2)cc(-c2ccncc2)c1
2. COc1ccccc1-c1n[nH]c2ncc(C(=O)NCc3cccnc3)nc12
3. Cl.O=C1Nc2ccccc2CN(CC2CCCCC2)C12CCNCC2
4. CN(Cc1ccccc1)C(=O)c1cn2ccnc(-c3ccccc3)c2n1

(A)
−110
−15
−119
−286

Required: Imax, HEK-hNpr1-cGMP-sensor cells, one value per compound below.
1. CCC(CC)c1cc([C@H]2CN3CC[C@H]2C[C@@H]3CNS(=O)(=O)c2cccs2)nc(-c2ccncc2)n1
2. Cc1cc(CNC(=O)c2ccc3c(c2)n(CC2CC2)c(=O)n3C2CCCCC2)on1
3. O=C(NCc1cccnc1)c1cnc2[nH]nc(-c3ccccc3)c2n1
4. Cc1nn2c(c1-c1ccccc1OCc1ccccc1)N(C(=O)Cc1ccccn1)CCC2
5. N#Cc1ccccc1CN1CCCC(C(=O)NCc2ccccc2)CCNC(=O)CC1 (centres unmarked)

(A)
["−183", "−140", "−216", "−106", "−99"]
